Source: PubChem BioAssay

- system: Sentrin-specific protease 6 (Homo sapiens) (UniProt Q9GZR1)
- Sequence (Q9GZR1 628-1112 limits assumed): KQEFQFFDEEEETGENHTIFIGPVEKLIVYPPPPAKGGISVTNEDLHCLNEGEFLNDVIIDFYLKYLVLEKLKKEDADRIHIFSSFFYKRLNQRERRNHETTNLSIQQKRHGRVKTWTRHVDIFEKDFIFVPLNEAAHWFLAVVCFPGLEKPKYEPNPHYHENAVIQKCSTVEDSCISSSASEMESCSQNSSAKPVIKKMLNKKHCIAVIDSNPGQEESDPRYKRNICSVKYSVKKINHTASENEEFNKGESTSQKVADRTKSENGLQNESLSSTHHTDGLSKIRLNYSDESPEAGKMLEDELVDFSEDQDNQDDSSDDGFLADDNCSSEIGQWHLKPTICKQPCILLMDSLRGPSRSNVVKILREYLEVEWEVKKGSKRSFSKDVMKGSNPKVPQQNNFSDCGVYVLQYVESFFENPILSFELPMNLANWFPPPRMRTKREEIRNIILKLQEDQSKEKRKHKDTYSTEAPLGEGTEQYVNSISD
- assay: SENP6 protease inhibitors, confirmation, biochemical, luminescence, single concentration (AID 488915)
- experimental.context: recombinant SENP6, Z-RLRGG-aminoluciferin luminescence; at 12.5 µM
This is one part of the list. Activity calls are given as the source filed them.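 Rule for the calls: active = mean inhibition above about 50% in the one-dose retest (limit read from the data); inactive = the rest.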
Labels: label 1 (active), label 0 (inactive)

- molecule: "Cc1ccc(-c2nc3ccccc3[nH]2)cc1N"
  system: "Sentrin-specific protease 6 (Homo sapiens) (UniProt Q9GZR1)"
  category.label: "label 1"
- molecule: "Cc1ccc(C(=O)N/N=C\\c2cc(Br)c(Br)o2)cn1"
  system: "Sentrin-specific protease 6 (Homo sapiens) (UniProt Q9GZR1)"
  category.label: "label 0"
- molecule: "O=C(O)/C=C/C(=O)NNc1ccc([N+](=O)[O-])cc1"
  system: "Sentrin-specific protease 6 (Homo sapiens) (UniProt Q9GZR1)"
  category.label: "label 1"
- molecule: "COc1cccc2sc(Nc3nc(C)c(C(C)=O)s3)nc12"
  system: "Sentrin-specific protease 6 (Homo sapiens) (UniProt Q9GZR1)"
  category.label: "label 0"
- molecule: "Fc1ccc(COc2ccc(-c3nnco3)cc2)cc1"
  system: "Sentrin-specific protease 6 (Homo sapiens) (UniProt Q9GZR1)"
  category.label: "label 1"
- molecule: "CCN1CC=C2C(C#N)=C(N)C(C#N)(C#N)[C@H](c3ccoc3)[C@H]2C1"
  system: "Sentrin-specific protease 6 (Homo sapiens) (UniProt Q9GZR1)"
  category.label: "label 0"
- molecule: "CC(C)CCNC(=O)c1ccc2c(Cl)c3c(nc2c1)CCC3"
  system: "Sentrin-specific protease 6 (Homo sapiens) (UniProt Q9GZR1)"
  category.label: "label 1"
- molecule: "O=C1C(=O)N(CCCN2CCOCC2)C(c2ccc([N+](=O)[O-])cc2)/C1=C(\\O)c1ccc2c(c1)OCCO2 (configuration not stated)"
  system: "Sentrin-specific protease 6 (Homo sapiens) (UniProt Q9GZR1)"
  category.label: "label 0"
- molecule: "Cc1c(C(=O)Nc2ccccn2)oc2ccc(Br)cc12"
  system: "Sentrin-specific protease 6 (Homo sapiens) (UniProt Q9GZR1)"
  category.label: "label 0"
- molecule: "Cc1ccc(O)c(CNc2nc3ccccc3n2C)c1"
  system: "Sentrin-specific protease 6 (Homo sapiens) (UniProt Q9GZR1)"
  category.label: "label 0"
- molecule: "O=c1oc2ccccc2cc1-c1cn(-c2ccccc2)c(=S)[nH]1"
  system: "Sentrin-specific protease 6 (Homo sapiens) (UniProt Q9GZR1)"
  category.label: "label 0"
- molecule: "COc1ccc(C(=O)COC(=O)c2ccc([N+](=O)[O-])s2)cc1OC"
  system: "Sentrin-specific protease 6 (Homo sapiens) (UniProt Q9GZR1)"
  category.label: "label 0"
